Quick reference: Ki of the listed items.
# target or system: Cannabinoid receptor 2 (Homo sapiens, UniProt P34972)
# Sequence (P34972 whole entry): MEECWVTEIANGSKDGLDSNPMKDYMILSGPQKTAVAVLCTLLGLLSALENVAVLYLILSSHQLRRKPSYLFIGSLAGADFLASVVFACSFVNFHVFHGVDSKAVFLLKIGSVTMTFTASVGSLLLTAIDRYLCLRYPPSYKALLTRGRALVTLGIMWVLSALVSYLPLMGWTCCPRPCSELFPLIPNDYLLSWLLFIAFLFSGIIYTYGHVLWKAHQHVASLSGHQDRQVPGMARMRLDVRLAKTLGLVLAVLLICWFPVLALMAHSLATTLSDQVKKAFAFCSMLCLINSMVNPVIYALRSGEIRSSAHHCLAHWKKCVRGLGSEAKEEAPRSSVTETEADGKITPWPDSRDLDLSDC
# run description: Displacement of [3H]CP-55940 from human recombinant CB2 receptor
endpoint: Ki

[[record]]
smiles_record = "CCCCCCCC/C=C\\CCCCCCCC(=O)Nc1ccc(OC)cc1"
result = "> 10 µM"

[[record]]
smiles_record = "CCCCC/C=C\\C/C=C\\C/C=C\\C/C=C\\CCCC(=O)N1CCN(c2ccc(Cl)cc2)CC1"
result = "> 10 µM"

[[record]]
smiles_record = "CCCCCCCC/C=C/C(=O)Nc1ccc(N2CCOCC2)cc1"
result = "> 10 µM"

[[record]]
smiles_record = "CCCCCCCC/C=C\\CCCCCCCC(=O)NCCc1ccc(OC)cc1OC"
result = "> 10 µM"

[[record]]
smiles_record = "CCCCCCCC/C=C\\CCCCCCCC(=O)NCCc1ccc(OC)cc1"
result = "> 10 µM"

[[record]]
smiles_record = "CCCCCCCC/C=C\\CCCCCCCCCCCC(=O)Nc1ccc(OC)cc1"
result = "> 10 µM"

[[record]]
smiles_record = "CCCCCCCC/C=C\\CCCCCCCCCCCC(=O)NCCc1ccc(OC)cc1"
result = "> 10 µM"

[[record]]
smiles_record = "C=CCCCCCCCCC(=O)NCCc1ccc(OC)cc1"
result = "> 10 µM"

[[record]]
smiles_record = "CCCCCCCC/C=C/C(=O)NCCc1cc(OC)cc(OC)c1"
result = "5.2 µM"

[[record]]
smiles_record = "CCCCC/C=C\\C/C=C\\C/C=C\\C/C=C\\CCCC(=O)NCCc1ccc(OC)cc1"
result = "> 10 µM"

[[record]]
smiles_record = "CCCCCCCC/C=C\\CCCCCCCCCCCC(=O)Nc1ccc(N2CCOCC2)cc1"
result = "> 10 µM"

[[record]]
smiles_record = "CCCCC/C=C\\C/C=C\\C/C=C\\C/C=C\\CCCC(=O)N1CCN(c2ccc(F)cc2)CC1"
result = "5.1 µM"

[[record]]
smiles_record = "CCCCC/C=C\\C/C=C\\C/C=C\\C/C=C\\CCCC(=O)Nc1ccc(OC)cc1"
result = "4 µM"

[[record]]
smiles_record = "C=CCCCCCCCCC(=O)Nc1ccc(OC)cc1"
result = "> 10 µM"

[[record]]
smiles_record = "CCCCCCCC/C=C\\CCCCCCCC(=O)NCCc1cc(OC)cc(OC)c1"
result = "> 10 µM"

[[record]]
smiles_record = "CCCCCCCC/C=C\\CCCCCCCCCCCC(=O)NCCc1ccc(OC)cc1OC"
result = "> 10 µM"

[[record]]
smiles_record = "CCCCC/C=C\\C/C=C\\C/C=C\\C/C=C\\CCCC(=O)NCCc1cc(OC)cc(OC)c1"
result = "> 10 µM"

[[record]]
smiles_record = "CCCCCCCC/C=C/C(=O)NCCc1ccc(OC)cc1OC"
result = "> 10 µM"

[[record]]
smiles_record = "CCCCC/C=C\\C/C=C\\C/C=C\\C/C=C\\CCCC(=O)Nc1ccc(N2CCOCC2)cc1"
result = "4.3 µM"

[[record]]
smiles_record = "CCCCC/C=C\\C/C=C\\C/C=C\\C/C=C\\CCCC(=O)NCc1ccc(OC)cc1"
result = "4.5 µM"

[[record]]
smiles_record = "CCCCCCCC/C=C/C(=O)NCc1ccc(OC)cc1"
result = "> 10 µM"

[[record]]
smiles_record = "CCCCC/C=C\\C/C=C\\C/C=C\\C/C=C\\CCCC(=O)NCc1cc(OC)ccc1OC"
result = "4.1 µM"

[[record]]
smiles_record = "CCCCC/C=C\\C/C=C\\C/C=C\\C/C=C\\CCCC(=O)N1CCN(c2ccc(C)c(C)c2)CC1"
result = "4.2 µM"

[[record]]
smiles_record = "CCCCCCCC/C=C\\CCCCCCCC(=O)NCc1ccc(OC)cc1"
result = "> 10 µM"

[[record]]
smiles_record = "CCCCC/C=C\\C/C=C\\C/C=C\\C/C=C\\CCCC(=O)NCc1ccc(OC)cc1OC"
result = "4 µM"

[[record]]
smiles_record = "C=CCCCCCCCCC(=O)Nc1ccc(N2CCOCC2)cc1"
result = "> 10 µM"

[[record]]
smiles_record = "C=CCCCCCCCCC(=O)NCCc1cc(OC)cc(OC)c1"
result = "> 10 µM"

[[record]]
smiles_record = "C=CCCCCCCCCC(=O)NCCc1ccc(OC)cc1OC"
result = "> 10 µM"

[[record]]
smiles_record = "C=CCCCCCCCCC(=O)NCc1ccc(OC)cc1"
result = "> 10 µM"

[[record]]
smiles_record = "CCCCCCCC/C=C\\CCCCCCCC(=O)Nc1ccc(N2CCOCC2)cc1"
result = "> 10 µM"

[[record]]
smiles_record = "CCCCCCCC/C=C/C(=O)Nc1ccc(OC)cc1"
result = "2.5 µM"

[[record]]
smiles_record = "CCCCCCCC/C=C\\CCCCCCCCCCCC(=O)NCCc1cc(OC)cc(OC)c1"
result = "> 10 µM"

[[record]]
smiles_record = "CCCCCCCC/C=C\\CCCCCCCCCCCC(=O)NCc1ccc(OC)cc1"
result = "> 10 µM"

[[record]]
smiles_record = "CCCCC/C=C\\C/C=C\\C/C=C\\C/C=C\\CCCC(=O)NCCc1ccc(OC)cc1OC"
result = "4 µM"

[[record]]
smiles_record = "CCCCCCCC/C=C/C(=O)NCCc1ccc(OC)cc1"
result = "5.1 µM"

